- method-description: blockers of orphan receptor GPR35 – imaging, image-based, set 2, SAR follow-up (AID 2480)
pIC50: −log10 of the molar value.

compound	comparison-operator	pIC50
O=C(CCCN1C(=O)/C(=C/c2ccccc2)SC1=S)Nc1ccc(O)cc1	=	5.06
O=C(CCCN1C(=O)S/C(=C\C=C\c2ccccc2)C1=O)Nc1ccc(C(=O)O)cc1 [MLS000948015]	=	5.93
Cc1ccc(OCCC(=O)NCCc2ccc(S(N)(=O)=O)cc2)cc1 [MLS-0213737.0001]	<	4.49
O=C(CCCN1C(=O)S/C(=C/c2ccccc2)C1=S)Nc1ccc(C(=O)O)cc1 [MLS001167691]	=	5.80
CCOC(=O)c1ccc(NC(=O)CCCN2C(=O)/C(=C/c3ccc(C)cc3)SC2=S)cc1 [MLS-0435416.0001]	=	5.59
CCOC(=O)c1ccc(NC(=O)CCCN2C(=O)/C(=C/c3ccccc3)SC2=S)cc1	=	5.06
COc1ccc(/C=C2\SC(=S)N(CCCC(=O)Nc3ccc(O)cc3)C2=O)cc1 [MLS-0304362.0001]	=	5.94
Cc1ccc(/C=C2\SC(=S)N(CCCC(=O)Nc3cccc(C(=O)O)c3)C2=O)cc1 [MLS001034563]	=	6.62
Cc1c(C(=O)Nc2ccc3c(c2)OCCO3)sc2ncnc(N3CCC(C)CC3)c12	=	5.39

Every entry's value here was drawn from BindingDB's records for doi:10.7270/Q2F47MKR.
